Consider the following binders and their measured glycan array binding signal (z-score) readings.
target: Gal(b1-4)GlcNAc(b1-2)Man(a1-3)[Gal(b1-4)GlcNAc(b1-2)Man(a1-6)]Man(b1-4)GlcNAc(b1-4)[Fuc(a1-6)]GlcNAc; assay: glycan array binding signal (z-score within array); higher = stronger binding; conditions: glycan notation: IUPAC condensed, linker removed
This excerpt belongs to a sample that is enriched for the strongest signals.
Respond using a number only.

>  <binder>
RVL (Remusatia vivipara), B5LYJ9 (protein) MAKLLLFLLPAILGLLVPRSAVALGTNYLLSGQTLDTEGHLKNGDFDLVMQDDCNLVLYNGNWQSNTANNGRDCKLTLTDYGELVIKNGDGSTVWKSGAQSVKGNYAAVVHPDGRLVVLGPSVFKIDPWVRGLNSLRFRNIPFTNNLLFSGQVLYGDGRLTAKNHQLVMQGDCNLVLYGGKYGWQSNTHGNGEHCFLRLNHKGELIIKDDDFKTIWSSRSSSKQGEYVLILQDDGFGVIYGPAIFETSSKRSIAAS

>  <glycan array binding signal (z-score)>
7.05

$$$$

As a next step, examine the binder that follows.
Value of glycan array binding signal (z-score) reported for the binder LcH (Lens culinaris), P02870 (protein) TETTSFSITKFSPDQQNLIFQGDGYTGKEGLTLTKVSKETGGRALYSTPIHIWDRDTVNVANFVTNGSQVFRESPNGYNVADGFTFFIAPVDTKPQTGGGYLGVFYNGKEYDKTSQTVAVEFDTFYNAAWDPSNKERHIGIDVNSIKSVNTKSWNLQNGVTSYTLNEVVPLKDVVPEWVRIGFSATTGAEFAAQEVHSWSFNSQLGHTSKS is 9.53

Reference source: the supplement of paper PMC8728848
